Test system: Alternaria alternata
ASSAY PROTOCOL: Antifungal activity against Alternaria alternata SRRC 1107 after 24 to 48 hr
Assay type: functional, organism-based
MEASURED PARAMETER: pIC50
Here pIC50 is given on a logarithmic scale as minus log10 of the concentration in mol/L.

Please tell me: pIC50 of H-FKLRAKIKVRLRAKIKL-OH , system Alternaria alternata?
4.91

###

System: Pseudomonas amygdali pv. tabaci
ASSAY PROTOCOL: Antibacterial activity against Pseudomonas syringae pv. tabaci after 24 to 48 hr
Format: functional, organism-based
MEASURED PARAMETER: IC50 (µM)
Enter your answer as a number in µM; do not include the unit.

Name the reported IC50 value associated with the substance H-FKLRAKIKVRLRAKIKL-OH
0.52

###

System: Fusarium verticillioides
ASSAY PROTOCOL: Antifungal activity against Fusarium verticillioides SRRC 1082 after 24 to 48 hr
Type: functional, organism-based
MEASURED PARAMETER: pIC50
Here pIC50 is given on a logarithmic scale as minus log10 of the concentration in mol/L.

Name the reported pIC50 value associated with the substance H-FKLRAKIKVRLRAKIKL-OH
6.06

###

Tested on: Aspergillus flavus
ASSAY PROTOCOL: Antifungal activity against Aspergillus flavus 70-W after 24 to 48 hr
Format: functional, organism-based
MEASURED PARAMETER: pIC50
Here pIC50 is given on a logarithmic scale as minus log10 of the concentration in mol/L.

Name the reported pIC50 value associated with the substance H-FKLRAKIKVRLRAKIKL-OH
5.11
